- System: EV-D68 (strain US/MO/14-18949)
- experiment_notes: EV-D68 antiviral screening assay in RD cells
- run_parameters: Enterovirus D, EVD68, RD, read-out: EC50 EV-D68, RD cells; strain US/MO/14-18949; geometric mean
pEC50: −log10 of the molar value.
Think of 6 as a floor: if pEC50 stands on it or above, it is 1 (yes); beneath it, 0 (no).

Reference set, count: 5
>>> df
                                   molecule              measurement_target  group_label
0  Cc1cc(-c2noc(C(F)(F)F)n2)ccc1O[C@@H]1CCN(c2cc(C(=O)N(C)C)no2)C1  EV-D68 (strain US/MO/14-18949)      1 (yes)
1  CN(C)C(=O)c1cc(CCCn2ccc3cc(C#N)ccc32)on1  EV-D68 (strain US/MO/14-18949)       0 (no)
2  CCOC(=O)c1ccc(OCCC2CCN(c3ccc(C)nn3)CC2)cc1 [Compound S-58, Pirodavir, reference compound]  EV-D68 (strain US/MO/14-18949)      1 (yes)
3  Cc1cc(CCCOc2c(C)cc(-c3noc(C(F)(F)F)n3)cc2C)on1  EV-D68 (strain US/MO/14-18949)      1 (yes)
4  Cc1cc(-c2noc(C(F)(F)F)n2)ccc1OCCCc1cc(C(=O)N(C)C)no1 [Compound 2, CP-11526092, reference compound]  EV-D68 (strain US/MO/14-18949)      1 (yes)

In plain terms: is recorded pEC50 at least 6 for CN(C)C(=O)c1cc(CCCn2ccc3cc(-c4noc(C(F)(F)F)n4)cnc32)on1 ?
0 (no)

In plain terms: is recorded pEC50 at least 6 for CN(C)C(=O)c1cc(-c2cccc(Oc3ccc(-c4noc(C(F)(F)F)n4)cc3)c2)on1 ?
0 (no)

In plain terms: is recorded pEC50 at least 6 for Cc1cc(-c2noc(C(F)(F)F)n2)ccc1Oc1cncc(-c2cc(C(=O)N(C)C)no2)c1 ?
0 (no)

In plain terms: is recorded pEC50 at least 6 for Cc1cc(-c2noc(C(F)(F)F)n2)ccc1OCCNc1cc(C(=O)N(C)C)no1 ?
0 (no)

In plain terms: is recorded pEC50 at least 6 for Cc1cc(-c2noc(C(F)(F)F)n2)ccc1O[C@H]1CCN(c2cc(C(=O)N(C)C)no2)C1 ?
1 (yes)

In plain terms: is recorded pEC50 at least 6 for CN(C)C(=O)c1cc(CCCn2ccc3cc(-c4noc(C(F)(F)F)n4)ncc32)on1 ?
0 (no)

* * *

- experiment_notes: LogD at pH 7.4, shake-flask method
- run_parameters: pH 7.4
Exercise: state measured logD for each of the molecules provided.
Give bare numbers.

In [3]: df
Out[3]:
                                   molecule  readout_kind  value_measured
0  CN(C)C(=O)c1cc(CCCn2ccc3cc(-c4noc(C(F)(F)F)n4)cnc32)on1 [Compound 29]          logD             3.8
1  Cc1cc(CCCOc2c(C)cc(-c3noc(C(F)(F)F)n3)cc2C)on1 [Compound 1, Pleconaril]          logD             4.2
2  Cc1cc(-c2noc(C(F)(F)F)n2)ccc1O[C@H]1CCN(c2cc(C(=O)N(C)C)no2)C1 [Compound 34]          logD             4.2
3  Cc1cc(-c2noc(C(F)(F)F)n2)ccc1O[C@@H]1CCN(c2cc(C(=O)N(C)C)no2)C1 [Compound 33]          logD             4.2
4  CN(C)C(=O)c1cc(CCCn2ccc3cc(-c4noc(C(F)(F)F)n4)ncc32)on1 [Compound 30]          logD               3

Now look at this one.
Given C#CCc1ccc(OCCCc2cc(C(=O)N(C)C)no2)cc1 [Compound 55] , state its recorded logD.
3.1
